# assayProtocol: Single ascending oral dose study in healthy volunteers: plasma pharmacokinetics
# Assay type: in vivo, human
# conditionLabel: human, plasma, oral, 10 mg; read-out: Mean Residence Time, Geometric Mean
valueType: MRT

> print(dat)
                                   compound  valuetype  measuredresult
1  Cn1cc(S(=O)(=O)[C@@](C)(F)C2CCN(C(=O)Nc3ccon3)CC2)c(C(F)F)n1 [Compound I]        MRT          21.1 h

====

# assayProtocol: Single ascending oral dose study in healthy volunteers: plasma pharmacokinetics
# Assay type: in vivo, human
# conditionLabel: human, plasma, oral, 525 mg; read-out: AUC0-last, Geometric Mean
valueType: AUC(0-t)

> print(dat)
                                 testsmiles  measuredresult
1  Cn1cc(S(=O)(=O)[C@@](C)(F)C2CCN(C(=O)Nc3ccon3)CC2)c(C(F)F)n1   68100 ng·h/mL
